System: P. aeruginosa ATCC 27853
Format: cell-based
Condition Label: ATCC 27853, 20 h
Protocol: MIC values were evaluated by using the modified Hancock lab protocol in non-binding polystyrene microtitre plates, with bacterial suspensions of ∼2 × 10^5 CFU/mL in Mueller-Hinton broth (Difco, Sparks MD, USA), with Mg^2+ and Ca^2+ concentrations of 4 mg/L each. The compounds were dissolved in H2O and diluted in 0.01% acetic acid, 0.2% BSA (final concentration). Aliquots of 11 µL of 10 × test compounds were then transferred to the appropriate wells with bacterial suspensions. […]
Non-standard residues stand in square brackets, D forms with d. Residues, ends and D or L forms follow the SMILES beside them. Gly(NCH2CH2Ph) = O=C(O)CNCCc1ccccc1; hPhe = N[C@@H](CCc1ccccc1)C(=O)O; Gly(N(CH2)3NH2) = NCCCNCC(=O)O; hLys = NCCCCC[C@H](N)C(=O)O; Nphe = O=C(O)CNCc1ccccc1; Orn = NCCC[C@H](N)C(=O)O; Dab = NCC[C@H](N)C(=O)O
Result Type: MIC

Example entries and their recorded answers appear below.
>>> test_value("NCCC[C@H](NC(=O)CN(Cc1ccccc1)C(=O)[C@H](CCCN)NC(=O)CN(Cc1ccccc1)C(=O)[C@H](CCCN)NC(=O)CN(Cc1ccccc1)C(=O)[C@H](CCCN)NC(=O)CN(Cc1ccccc1)C(=O)[C@H](CCCN)NC(=O)CN(Cc1ccccc1)C(=O)[C@@H](N)CCCN)C(=O)N(CC(N)=O)Cc1ccccc1 [Peptidomimetic 10] (H-[Orn][Nphe][Orn][Nphe][Orn][Nphe][Orn][Nphe][Orn][Nphe][Orn][Nphe]-NH2)")
"2 to 4 µg/mL"
>>> test_value("NCCCNCC(=O)N[C@@H](CCc1ccccc1)C(=O)N(CCCN)CC(=O)N[C@@H](CCc1ccccc1)C(=O)N(CCCN)CC(=O)N[C@@H](CCc1ccccc1)C(=O)N(CCCN)CC(=O)N[C@@H](CCc1ccccc1)C(=O)N(CCCN)CC(=O)N[C@@H](CCc1ccccc1)C(=O)N(CCCN)CC(=O)N[C@@H](CCc1ccccc1)C(N)=O [Peptidomimetic 6] (H-[Gly(N(CH2)3NH2)][hPhe][Gly(N(CH2)3NH2)][hPhe][Gly(N(CH2)3NH2)][hPhe][Gly(N(CH2)3NH2)][hPhe][Gly(N(CH2)3NH2)][hPhe][Gly(N(CH2)3NH2)][hPhe]-NH2)")
"8 µg/mL"
>>> test_value("NCC[C@H](NC(=O)CN(Cc1ccccc1)C(=O)[C@H](CCN)NC(=O)CN(Cc1ccccc1)C(=O)[C@H](CCN)NC(=O)CN(Cc1ccccc1)C(=O)[C@H](CCN)NC(=O)CN(Cc1ccccc1)C(=O)[C@H](CCN)NC(=O)CN(Cc1ccccc1)C(=O)[C@@H](N)CCN)C(=O)N(CC(N)=O)Cc1ccccc1 [Peptidomimetic 9] (H-[Dab][Nphe][Dab][Nphe][Dab][Nphe][Dab][Nphe][Dab][Nphe][Dab][Nphe]-NH2)")
"1 µg/mL"
>>> test_value("NCCCCC[C@H](NC(=O)CN(Cc1ccccc1)C(=O)[C@H](CCCCCN)NC(=O)CN(Cc1ccccc1)C(=O)[C@H](CCCCCN)NC(=O)CN(Cc1ccccc1)C(=O)[C@H](CCCCCN)NC(=O)CN(Cc1ccccc1)C(=O)[C@H](CCCCCN)NC(=O)CN(Cc1ccccc1)C(=O)[C@@H](N)CCCCCN)C(=O)N(CC(N)=O)Cc1ccccc1 [Peptidomimetic 12] (H-[hLys][Nphe][hLys][Nphe][hLys][Nphe][hLys][Nphe][hLys][Nphe][hLys][Nphe]-NH2)")
"64 µg/mL"

Input NCCCC[C@H](NC(=O)CN(CCc1ccccc1)C(=O)[C@H](CCCCN)NC(=O)CN(CCc1ccccc1)C(=O)[C@H](CCCCN)NC(=O)CN(CCc1ccccc1)C(=O)[C@H](CCCCN)NC(=O)CN(CCc1ccccc1)C(=O)[C@H](CCCCN)NC(=O)CN(CCc1ccccc1)C(=O)[C@@H](N)CCCCN)C(=O)N(CCc1ccccc1)CC(N)=O [Peptidomimetic 15] (H-K[Gly(NCH2CH2Ph)]K[Gly(NCH2CH2Ph)]K[Gly(NCH2CH2Ph)]K[Gly(NCH2CH2Ph)]K[Gly(NCH2CH2Ph)]K[Gly(NCH2CH2Ph)]-NH2) . Output MIC: 16 µg/mL

###

Tested on: A. baumannii ATCC 19606
Type: cell-based
Condition Label: ATCC 19606, 20 h
Non-standard residues stand in square brackets, D forms with d. Residues, ends and D or L forms follow the SMILES beside them. Gly(NCH2CH2Ph) = O=C(O)CNCCc1ccccc1; Nphe = O=C(O)CNCc1ccccc1; Dab = NCC[C@H](N)C(=O)O
Result Type: MIC

>>> test_value("NCC[C@H](NC(=O)CN(CCc1ccccc1)C(=O)[C@H](CCN)NC(=O)CN(CCc1ccccc1)C(=O)[C@H](CCN)NC(=O)CN(CCc1ccccc1)C(=O)[C@H](CCN)NC(=O)CN(CCc1ccccc1)C(=O)[C@H](CCN)NC(=O)CN(CCc1ccccc1)C(=O)[C@@H](N)CCN)C(=O)N(CCc1ccccc1)CC(N)=O [Peptidomimetic 13] (H-[Dab][Gly(NCH2CH2Ph)][Dab][Gly(NCH2CH2Ph)][Dab][Gly(NCH2CH2Ph)][Dab][Gly(NCH2CH2Ph)][Dab][Gly(NCH2CH2Ph)][Dab][Gly(NCH2CH2Ph)]-NH2)")
">64 µg/mL"

Please look at the following compound next.
Recorded MIC (compound NCCCC[C@H](NC(=O)CN(Cc1ccccc1)C(=O)[C@H](CCCCN)NC(=O)CN(Cc1ccccc1)C(=O)[C@H](CCCCN)NC(=O)CN(Cc1ccccc1)C(=O)[C@H](CCCCN)NC(=O)CN(Cc1ccccc1)C(=O)[C@H](CCCCN)NC(=O)CN(Cc1ccccc1)C(=O)[C@@H](N)CCCCN)C(=O)N(CC(N)=O)Cc1ccccc1 [Peptidomimetic 11] (H-K[Nphe]K[Nphe]K[Nphe]K[Nphe]K[Nphe]K[Nphe]-NH2) ): >64 µg/mL

###

Test Name: Relative hydrophobicity by RP-HPLC (% MeCN at peak elution)
Format: physicochemical
Condition Label: RP-HPLC gradient 0 → 60% B during 10 min; % MeCN at peak elution calculated from retention time
Method: The relative hydrophobicity of each peptidomimetic was measured by reverse-phase high-performance liquid chromatography (RP-HPLC). Typically, the RP-HPLC retention time (or percentage acetonitrile at peak elution) constitutes the preferred measure that allows for comparison of relative hydrophobicity, while log P values of polycationic peptides or peptidomimetics normally are considered unsuitable due to the extreme hydrophilic nature of such compounds [11, 45, 57, 58, 59, 60]. […]
Non-standard residues stand in square brackets, D forms with d. Residues, ends and D or L forms follow the SMILES beside them. N(5-aminopentyl)Gly = NCCCCCNCC(=O)O; hPhe = N[C@@H](CCc1ccccc1)C(=O)O; Nlys = NCCCCNCC(=O)O
Known Hydrophobicity (% MeCN at elution) of a selection of compounds
Give the number first and the unit second.

Study these solved cases before continuing.
>>> test_value("NCCCCNCC(=O)N[C@@H](CCc1ccccc1)C(=O)N(CCCCN)CC(=O)N[C@@H](CCc1ccccc1)C(=O)N(CCCCN)CC(=O)N[C@@H](CCc1ccccc1)C(=O)N(CCCCN)CC(=O)N[C@@H](CCc1ccccc1)C(=O)N(CCCCN)CC(=O)N[C@@H](CCc1ccccc1)C(=O)N(CCCCN)CC(=O)N[C@@H](CCc1ccccc1)C(N)=O [Peptidomimetic 7] (H-[Nlys][hPhe][Nlys][hPhe][Nlys][hPhe][Nlys][hPhe][Nlys][hPhe][Nlys][hPhe]-NH2)")
"40.6%"
>>> test_value("NCCCCNCC(=O)N[C@@H](Cc1ccccc1)C(=O)N(CCCCN)CC(=O)N[C@@H](Cc1ccccc1)C(=O)N(CCCCN)CC(=O)N[C@@H](Cc1ccccc1)C(=O)N(CCCCN)CC(=O)N[C@@H](Cc1ccccc1)C(=O)N(CCCCN)CC(=O)N[C@@H](Cc1ccccc1)C(=O)N(CCCCN)CC(=O)N[C@@H](Cc1ccccc1)C(N)=O [Peptidomimetic 3] (H-[Nlys]F[Nlys]F[Nlys]F[Nlys]F[Nlys]F[Nlys]F-NH2)")
"35.6%"

The compound listed as NCCCCCNCC(=O)N[C@@H](Cc1ccccc1)C(=O)N(CCCCCN)CC(=O)N[C@@H](Cc1ccccc1)C(=O)N(CCCCCN)CC(=O)N[C@@H](Cc1ccccc1)C(=O)N(CCCCCN)CC(=O)N[C@@H](Cc1ccccc1)C(=O)N(CCCCCN)CC(=O)N[C@@H](Cc1ccccc1)C(=O)N(CCCCCN)CC(=O)N[C@@H](Cc1ccccc1)C(N)=O [Peptidomimetic 4] (H-[N(5-aminopentyl)Gly]F[N(5-aminopentyl)Gly]F[N(5-aminopentyl)Gly]F[N(5-aminopentyl)Gly]F[N(5-aminopentyl)Gly]F[N(5-aminopentyl)Gly]F-NH2) shows Hydrophobicity (% MeCN at elution) equal to 36.6%
